Recorded pKi, one value per entry.
targetDesc: Proprotein convertase subtilisin/kexin type 6 (Homo sapiens)
Sequence (P29122 whole entry): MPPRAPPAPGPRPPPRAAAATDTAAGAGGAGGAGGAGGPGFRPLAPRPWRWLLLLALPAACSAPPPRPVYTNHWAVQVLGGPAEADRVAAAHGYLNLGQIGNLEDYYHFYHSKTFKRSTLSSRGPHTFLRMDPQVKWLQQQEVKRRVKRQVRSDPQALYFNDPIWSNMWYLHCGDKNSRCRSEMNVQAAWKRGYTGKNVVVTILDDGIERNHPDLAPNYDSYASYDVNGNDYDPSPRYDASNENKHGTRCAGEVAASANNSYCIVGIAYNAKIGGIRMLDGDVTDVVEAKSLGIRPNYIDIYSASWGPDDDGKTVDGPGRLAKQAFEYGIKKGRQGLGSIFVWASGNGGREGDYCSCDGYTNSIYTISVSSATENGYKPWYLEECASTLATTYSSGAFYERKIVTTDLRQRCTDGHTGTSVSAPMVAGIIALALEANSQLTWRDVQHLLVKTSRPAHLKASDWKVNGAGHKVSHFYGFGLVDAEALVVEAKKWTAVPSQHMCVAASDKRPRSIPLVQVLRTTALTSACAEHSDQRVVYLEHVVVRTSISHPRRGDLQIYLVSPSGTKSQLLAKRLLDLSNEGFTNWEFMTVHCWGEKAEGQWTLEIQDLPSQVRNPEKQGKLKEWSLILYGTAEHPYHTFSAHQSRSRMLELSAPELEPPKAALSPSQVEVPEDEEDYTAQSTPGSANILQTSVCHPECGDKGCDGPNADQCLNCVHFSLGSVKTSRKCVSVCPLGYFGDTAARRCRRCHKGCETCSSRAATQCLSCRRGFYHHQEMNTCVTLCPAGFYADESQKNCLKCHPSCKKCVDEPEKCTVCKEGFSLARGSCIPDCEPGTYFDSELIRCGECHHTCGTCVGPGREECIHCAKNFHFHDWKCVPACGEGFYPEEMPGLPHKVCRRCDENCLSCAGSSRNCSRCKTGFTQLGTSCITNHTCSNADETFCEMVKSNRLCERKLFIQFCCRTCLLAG
methodDescription: Inhibition of recombinant human PACE4 expressed in drosophila S2 cells using pyrGlu-Arg-Thr-Lys-Arg-7-amido-4-methylcoumarin as substrate after 60 mins by spectrofluorometry method
Peptide text beside a SMILES is read from it. * marks the point of attachment. NH(4-amidinobenzyl) = N=C(N)c1ccc(CN*)cc1
Hey, just a heads up that pKi is the negative log base 10 of the concentration in molar.

Sample records with pKi:
CC(=O)N[C@@H](CC(C)C)C(=O)N[C@@H](CC(N)=O)C(=O)N[C@@H](CC(C)C)C(=O)N[C@@H](CC(C)C)C(=O)N[C@@H](CCCNC(=N)N)C(=O)N[C@H](C(=O)N[C@@H](CCCCN)C(=O)NCc1ccc(C(=N)N)cc1)C(C)C (Ac-LNLLRVK-{NH(4-amidinobenzyl)}) : 8.40
CC(=O)N[C@@H](CC(C)C)C(=O)N[C@@H](CC(C)C)C(=O)N[C@H](C(=O)N[C@@H](CC(C)C)C(=O)N[C@@H](CCCNC(=N)N)C(=O)N[C@H](C(=O)N[C@@H](CCCCN)C(=O)NCc1ccc(C(=N)N)cc1)C(C)C)C(C)C (Ac-LLVLRVK-{NH(4-amidinobenzyl)}) : 8.40

Query: Param item = `CC[C@H](C)[C@H](NC(=O)[C@H](CC(C)C)NC(=O)[C@@H](CC(C)C)NC(C)=O)C(=O)N[C@H](C(=O)N[C@@H](CCCNC(=N)N)C(=O)N[C@H](C(=O)N[C@@H](CCCCN)C(=O)NCc1ccc(C(=N)N)cc1)C(C)C)[C@@H](C)CC` ; retrieve measured pKi.
Reply: 7.85

Query: For the molecule CC(=O)N[C@@H](CC(C)C)C(=O)N[C@@H](CC(C)C)C(=O)N[C@@H](CC(C)C)C(=O)N[C@@H](CCCCN)C(=O)N[C@@H](CCCNC(=N)N)C(=O)N[C@H](C(=O)N[C@@H](CCCCN)C(=O)NCc1ccc(C(=N)N)cc1)C(C)C (Ac-LLLKRVK-{NH(4-amidinobenzyl)}) , what pKi is on record?
Reply: 8.70

Query: # query: pKi of entry CC(=O)N[C@@H](CC(C)C)C(=O)N[C@@H](CC(C)C)C(=O)N[C@@H](CC(=O)O)C(=O)N[C@@H](CC(C)C)C(=O)N[C@@H](CCCNC(=N)N)C(=O)N[C@H](C(=O)N[C@@H](CCCCN)C(=O)NCc1ccc(C(=N)N)cc1)C(C)C (Ac-LLDLRVK-{NH(4-amidinobenzyl)})
Reply: 6.85

Query: Quick one: pKi of CC(=O)N[C@@H](Cc1ccc(O)cc1)C(=O)N[C@@H](CC(C)C)C(=O)N[C@@H](CC(C)C)C(=O)N[C@@H](CC(C)C)C(=O)N[C@@H](CCCNC(=N)N)C(=O)N[C@H](C(=O)N[C@@H](CCCCN)C(=O)NCc1ccc(C(=N)N)cc1)C(C)C (Ac-YLLLRVK-{NH(4-amidinobenzyl)}) ?
Reply: 8.21

Query: Reported pKi, molecule CC(=O)N[C@@H](CC(C)C)C(=O)N[C@@H](CC(C)C)C(=O)N1CCC[C@H]1C(=O)N[C@@H](CC(C)C)C(=O)N[C@@H](CCCNC(=N)N)C(=O)N[C@H](C(=O)N[C@@H](CCCCN)C(=O)NCc1ccc(C(=N)N)cc1)C(C)C (Ac-LLPLRVK-{NH(4-amidinobenzyl)}) : ____
Reply: 8.40

###

targetDesc: Furin (Homo sapiens)
methodDescription: Inhibition of recombinant human furin expressed in drosophila S2 cells using pyrGlu-Arg-Thr-Lys-Arg-7-amido-4-methylcoumarin as substrate after 60 mins by spectrofluorometry method
Peptide text beside a SMILES is read from it. * marks the point of attachment. NH(4-amidinobenzyl) = N=C(N)c1ccc(CN*)cc1
// reported Ki for each item listed
Provide the reading as a plain figure in nM.

In the examples that follow, each entry is paired with its recorded Ki.
CSCC[C@H](NC(=O)[C@H](CC(C)C)NC(=O)[C@H](CC(C)C)NC(=O)[C@H](CC(C)C)NC(C)=O)C(=O)N[C@@H](CCCNC(=N)N)C(=O)N[C@H](C(=O)N[C@@H](CCCCN)C(=O)NCc1ccc(C(=N)N)cc1)C(C)C (Ac-LLLMRVK-{NH(4-amidinobenzyl)}) : 3.4
CC(=O)N[C@@H](CC(C)C)C(=O)N[C@@H](CO)C(=O)N[C@@H](CC(C)C)C(=O)N[C@@H](CC(C)C)C(=O)N[C@@H](CCCNC(=N)N)C(=O)N[C@H](C(=O)N[C@@H](CCCCN)C(=O)NCc1ccc(C(=N)N)cc1)C(C)C (Ac-LSLLRVK-{NH(4-amidinobenzyl)}) : 2.6

Now let's try a different one.
Query: So what's the measured Ki for this one? CC(=O)N[C@@H](CC(C)C)C(=O)N[C@@H](CC(C)C)C(=O)N[C@@H](CC(C)C)C(=O)N[C@@H](CCCNC(=N)N)C(=O)N[C@@H](CCCNC(=N)N)C(=O)N[C@H](C(=O)N[C@@H](CCCCN)C(=O)NCc1ccc(C(=N)N)cc1)C(C)C (Ac-LLLRRVK-{NH(4-amidinobenzyl)})
Reply: 0.7

###

targetDesc: Furin (Homo sapiens, UniProt P09958)
Sequence (P09958 whole entry): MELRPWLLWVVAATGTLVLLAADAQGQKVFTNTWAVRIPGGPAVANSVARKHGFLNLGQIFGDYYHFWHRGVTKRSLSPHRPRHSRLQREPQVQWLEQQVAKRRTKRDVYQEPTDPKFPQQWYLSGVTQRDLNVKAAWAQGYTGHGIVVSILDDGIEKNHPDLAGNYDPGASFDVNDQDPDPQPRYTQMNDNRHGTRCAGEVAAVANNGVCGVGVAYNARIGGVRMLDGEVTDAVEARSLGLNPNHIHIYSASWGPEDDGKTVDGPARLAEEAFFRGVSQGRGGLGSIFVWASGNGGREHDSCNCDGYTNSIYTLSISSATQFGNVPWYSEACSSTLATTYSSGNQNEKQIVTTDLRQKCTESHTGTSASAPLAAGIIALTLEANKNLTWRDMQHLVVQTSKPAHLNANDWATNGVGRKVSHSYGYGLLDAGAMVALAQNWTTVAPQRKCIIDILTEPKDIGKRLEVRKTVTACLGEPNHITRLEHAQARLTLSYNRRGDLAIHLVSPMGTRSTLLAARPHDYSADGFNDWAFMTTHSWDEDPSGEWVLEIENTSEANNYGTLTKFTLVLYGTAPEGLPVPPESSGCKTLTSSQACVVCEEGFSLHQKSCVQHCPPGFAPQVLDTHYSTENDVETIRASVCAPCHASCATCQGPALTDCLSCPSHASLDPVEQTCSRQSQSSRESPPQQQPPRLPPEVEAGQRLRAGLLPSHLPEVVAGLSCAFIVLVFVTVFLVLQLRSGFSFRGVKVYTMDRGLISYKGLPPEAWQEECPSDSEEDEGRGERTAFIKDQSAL
methodDescription: Inhibition of recombinant human furin expressed in drosophila S2 cells using pyrGlu-Arg-Thr-Lys-Arg-7-amido-4-methylcoumarin as substrate after 60 mins by spectrofluorometry method
Peptide text beside a SMILES is read from it. * marks the point of attachment. NH(4-amidinobenzyl) = N=C(N)c1ccc(CN*)cc1
measureName: pKi
Recall that pKi is obtained by taking minus log10 of the concentration measured in molar.

CC(=O)N[C@@H](CC(C)C)C(=O)N[C@@H](CC(C)C)C(=O)N1CCC[C@H]1C(=O)N[C@@H](CC(C)C)C(=O)N[C@@H](CCCNC(=N)N)C(=O)N[C@H](C(=O)N[C@@H](CCCCN)C(=O)NCc1ccc(C(=N)N)cc1)C(C)C (Ac-LLPLRVK-{NH(4-amidinobenzyl)}) : 8.85

Query compound follows.
Query: Look up pKi: CC(=O)N[C@@H](CC(C)C)C(=O)N[C@@H](CC(C)C)C(=O)N[C@@H](Cc1ccc(O)cc1)C(=O)N[C@@H](CC(C)C)C(=O)N[C@@H](CCCNC(=N)N)C(=O)N[C@H](C(=O)N[C@@H](CCCCN)C(=O)NCc1ccc(C(=N)N)cc1)C(C)C (Ac-LLYLRVK-{NH(4-amidinobenzyl)})
Reply: 8.23

###

Species: Homo sapiens
methodDescription: Selectivity index, ratio of Ki for recombinant human furin expressed in drosophila S2 cells to Ki for recombinant human PACE4 expressed in drosophila S2 cells
Assay type: cell-based
Peptide text beside a SMILES is read from it. * marks the point of attachment. NH(4-amidinobenzyl) = N=C(N)c1ccc(CN*)cc1
Parameter Ratio Ki: see the listing below.
Just the number, please, no unit after it.

Query: What value of measured Ratio Ki is listed for CC(=O)N[C@@H](CC(C)C)C(=O)N[C@@H](CC(C)C)C(=O)N[C@@H](CC(C)C)C(=O)N[C@H](C(=O)N[C@@H](CCCNC(=N)N)C(=O)N[C@H](C(=O)N[C@@H](CCCCN)C(=O)NCc1ccc(C(=N)N)cc1)C(C)C)[C@@H](C)O (Ac-LLLTRVK-{NH(4-amidinobenzyl)}) ?
Reply: 1.6

Query: Recorded Ratio Ki of CC(=O)N[C@@H](CCC(=O)O)C(=O)N[C@@H](CC(C)C)C(=O)N[C@@H](CC(C)C)C(=O)N[C@@H](CC(C)C)C(=O)N[C@@H](CCCNC(=N)N)C(=O)N[C@H](C(=O)N[C@@H](CCCCN)C(=O)NCc1ccc(C(=N)N)cc1)C(C)C (Ac-ELLLRVK-{NH(4-amidinobenzyl)}) , please.
Reply: 0.9

Query: Ratio Ki for CC(=O)N[C@@H](CCC(N)=O)C(=O)N[C@@H](CC(C)C)C(=O)N[C@@H](CC(C)C)C(=O)N[C@@H](CC(C)C)C(=O)N[C@@H](CCCNC(=N)N)C(=O)N[C@H](C(=O)N[C@@H](CCCCN)C(=O)NCc1ccc(C(=N)N)cc1)C(C)C (Ac-QLLLRVK-{NH(4-amidinobenzyl)}) ?
Reply: 1

###

Ratio Ki values, listed per item
Species on record: Homo sapiens
methodDescription: Selectivity index, ratio of Ki for recombinant human furin expressed in drosophila S2 cells to Ki for recombinant human PACE4 expressed in drosophila S2 cells
Format: cell-based
Peptide text beside a SMILES is read from it. * marks the point of attachment. NH(4-amidinobenzyl) = N=C(N)c1ccc(CN*)cc1
// response body must contain only the number

CC(=O)NCC(=O)N[C@@H](CC(C)C)C(=O)N[C@@H](CC(C)C)C(=O)N[C@@H](CC(C)C)C(=O)N[C@@H](CCCNC(=N)N)C(=O)N[C@H](C(=O)N[C@@H](CCCCN)C(=O)NCc1ccc(C(=N)N)cc1)C(C)C (Ac-GLLLRVK-{NH(4-amidinobenzyl)}) : 1
CC(=O)N[C@@H](CC(C)C)C(=O)N[C@@H](CCC(=O)O)C(=O)N[C@@H](CC(C)C)C(=O)N[C@@H](CC(C)C)C(=O)N[C@@H](CCCNC(=N)N)C(=O)N[C@H](C(=O)N[C@@H](CCCCN)C(=O)NCc1ccc(C(=N)N)cc1)C(C)C (Ac-LELLRVK-{NH(4-amidinobenzyl)}) : 0.5
CC[C@H](C)[C@H](NC(C)=O)C(=O)N[C@@H](CC(C)C)C(=O)N[C@@H](CC(C)C)C(=O)N[C@@H](CC(C)C)C(=O)N[C@@H](CCCNC(=N)N)C(=O)N[C@H](C(=O)N[C@@H](CCCCN)C(=O)NCc1ccc(C(=N)N)cc1)C(C)C (Ac-ILLLRVK-{NH(4-amidinobenzyl)}) : 1

Next up:
Query: Returns the measured Ratio Ki for the input compound. Input: CC(=O)N[C@@H](CC(C)C)C(=O)N[C@@H](CC(C)C)C(=O)N[C@@H](CC(C)C)C(=O)N1CCC[C@H]1C(=O)N[C@@H](CCCNC(=N)N)C(=O)N[C@H](C(=O)N[C@@H](CCCCN)C(=O)NCc1ccc(C(=N)N)cc1)C(C)C (Ac-LLLPRVK-{NH(4-amidinobenzyl)})
Reply: 0.7
